TEST SYSTEM: EGFR T790M/L858R (Homo sapiens, UniProt P00533, L858R/T790M)
Construct: purchased Thermo Fisher Scientific Inc
Sequence (P00533 25-1210 T790M/L858R): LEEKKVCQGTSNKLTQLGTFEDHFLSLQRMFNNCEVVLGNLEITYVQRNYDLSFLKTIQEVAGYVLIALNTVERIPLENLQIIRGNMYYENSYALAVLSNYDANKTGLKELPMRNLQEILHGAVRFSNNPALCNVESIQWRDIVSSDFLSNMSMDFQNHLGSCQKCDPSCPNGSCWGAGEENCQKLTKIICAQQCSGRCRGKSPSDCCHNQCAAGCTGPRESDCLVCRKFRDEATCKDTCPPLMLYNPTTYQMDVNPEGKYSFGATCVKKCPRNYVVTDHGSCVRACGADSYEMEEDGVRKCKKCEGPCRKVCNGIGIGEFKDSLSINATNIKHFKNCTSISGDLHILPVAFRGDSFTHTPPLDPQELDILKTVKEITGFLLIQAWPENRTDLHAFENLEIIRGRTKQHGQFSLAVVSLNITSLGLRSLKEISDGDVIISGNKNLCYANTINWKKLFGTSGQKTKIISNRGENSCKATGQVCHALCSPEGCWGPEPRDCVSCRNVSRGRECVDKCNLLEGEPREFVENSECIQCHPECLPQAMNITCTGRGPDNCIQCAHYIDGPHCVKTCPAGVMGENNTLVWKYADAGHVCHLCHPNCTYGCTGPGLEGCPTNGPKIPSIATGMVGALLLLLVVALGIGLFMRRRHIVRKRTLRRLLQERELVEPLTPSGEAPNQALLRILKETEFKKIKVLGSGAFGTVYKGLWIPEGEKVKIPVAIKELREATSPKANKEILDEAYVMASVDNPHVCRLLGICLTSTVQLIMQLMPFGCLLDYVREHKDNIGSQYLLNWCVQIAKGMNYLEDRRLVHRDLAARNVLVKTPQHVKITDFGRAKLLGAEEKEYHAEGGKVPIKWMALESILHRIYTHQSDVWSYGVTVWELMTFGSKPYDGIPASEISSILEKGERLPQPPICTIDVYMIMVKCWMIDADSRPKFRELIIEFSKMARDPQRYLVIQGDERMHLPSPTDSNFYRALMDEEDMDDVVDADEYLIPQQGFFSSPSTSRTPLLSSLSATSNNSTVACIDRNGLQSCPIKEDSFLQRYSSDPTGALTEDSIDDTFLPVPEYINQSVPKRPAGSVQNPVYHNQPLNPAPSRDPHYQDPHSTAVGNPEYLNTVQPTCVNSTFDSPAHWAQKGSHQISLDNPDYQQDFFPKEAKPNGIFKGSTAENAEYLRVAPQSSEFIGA
ASSAY: EGFR enzyme inhibitory activity evaluation (Z'-LYTE kinase assay), T790M/L858R
Type: biochemical
IC50 reference
Numbers only here, please. The scale is nM.

Record summary for "CCN1CCN(C2CCN(c3ccc(Nc4nc(Nc5ccccc5N(C)S(C)(=O)=O)c5cc[nH]c5n4)cc3F)CC2)CC1" : reported IC50 = 2.9

Recorded IC50 (compound "CN1CC2(C1)CN(c1ccc(Nc3nc(Nc4ccccc4N(C)S(C)(=O)=O)c4cc[nH]c4n3)cc1F)C2" ): 12

Summary for this compound, "CCCN1CCN(C2CCN(c3ccc(Nc4nc(Nc5ccccc5N(C)S(C)(=O)=O)c5cc[nH]c5n4)cc3F)CC2)CC1" : IC50 is 2.7
